- TARGET ENTITY: BTK (Homo sapiens, UniProt Q06187)
- Construct: High control=Cell group with added DMSO and without compound, indicating microplate readings without BTK degradation; endogenous in cells; host or cells: TMD-8
- Sequence (Q06187 whole entry): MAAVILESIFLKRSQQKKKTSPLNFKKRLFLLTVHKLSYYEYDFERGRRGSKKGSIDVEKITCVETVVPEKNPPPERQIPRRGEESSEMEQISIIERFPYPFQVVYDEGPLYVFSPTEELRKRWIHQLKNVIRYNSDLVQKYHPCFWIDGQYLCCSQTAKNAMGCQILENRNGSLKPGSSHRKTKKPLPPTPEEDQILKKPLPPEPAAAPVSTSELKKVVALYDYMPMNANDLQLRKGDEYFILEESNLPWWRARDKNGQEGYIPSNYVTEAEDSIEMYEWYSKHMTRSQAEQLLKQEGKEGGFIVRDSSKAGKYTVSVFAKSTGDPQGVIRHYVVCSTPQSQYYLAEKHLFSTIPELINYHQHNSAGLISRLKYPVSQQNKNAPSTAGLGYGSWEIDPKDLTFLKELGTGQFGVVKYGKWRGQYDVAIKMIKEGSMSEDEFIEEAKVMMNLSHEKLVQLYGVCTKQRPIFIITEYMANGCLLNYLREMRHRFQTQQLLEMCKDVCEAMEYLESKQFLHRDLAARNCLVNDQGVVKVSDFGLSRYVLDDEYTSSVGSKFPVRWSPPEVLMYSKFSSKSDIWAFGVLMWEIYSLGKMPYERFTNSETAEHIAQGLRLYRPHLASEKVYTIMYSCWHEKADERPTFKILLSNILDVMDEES
- MEASUREMENT NOTES: BTK degradation in TMD-8 cells (HTRF assay)
- Format: cell-based
- CONDITION INFO: 6 h treatment, IC50 (DC50) of BTK degradation
READOUT NAME: DC50 (nM)

1: Cc1cc(CCN2CCN(c3ccc4c(c3)[nH]c3ncnc(-c5ccc([C@@H](C)NC(=O)c6nc(C(C)(C)C)no6)c(C)c5)c34)CC2)ccc1C1CCC(=O)NC1=O (some centres unmarked) [Example 18]
2: Cc1cc(-c2ncnc3[nH]c4cc(N5CCN(C6CC(c7ccc([C@@H]8CCC(=O)NC8=O)cc7)C6)CC5)ccc4c23)ccc1[C@@H](C)NC(=O)c1nc(C2(C)CC2)no1 (some centres unmarked) [Example 68]
Lower value of DC50 belongs to which: 1 or 2 ? Let me know the label of the one you choose.
1
(1: 0.607 nM, 2: 1.6 nM)

----------
- TARGET ENTITY: BTK (Homo sapiens)
- Construct: High control=Cell group with added DMSO and without compound, indicating microplate readings without BTK degradation; endogenous in cells; host or cells: TMD-8
- MEASUREMENT NOTES: BTK degradation in TMD-8 cells (HTRF assay)
- Type: cell-based
- CONDITION INFO: 6 h treatment, IC50 (DC50) of BTK degradation
READOUT NAME: DC50 (nM)

CC(C)(C)c1noc(C(=O)NCC2CCN(c3ncnc4[nH]c5cc(N6CCN(CC7CCN(c8ccc(N9CCC(=O)NC9=O)cc8)CC7)CC6)ccc5c34)CC2)n1 | 140
Cc1cc(-c2ncnc3[nH]c4cc(C5CCN(C6CC(c7ccc(C8CCC(=O)NC8=O)cc7)C6)CC5)ncc4c23)ccc1[C@@H](C)NC(=O)c1nc(C(C)(C)C)no1 (some centres unmarked) | 1.85
Cc1cc(-c2ncnc3[nH]c4cc(N5CCN(CC6CCN(c7ccc(N8CCC(=O)NC8=O)cn7)CC6)CC5)ccc4c23)ccc1[C@@H](C)NC(=O)c1nc(C(C)(C)C)no1 | 1.27
Cc1c([C@@H](C)NC(=O)c2noc(C(C)(C)C)n2)ccc(-c2ncnc3[nH]c4cc(N5CCN(CCc6ccc(SC7CCC(=O)NC7=O)cc6)CC5)ccc4c23)c1F (some centres unmarked) | 16.6
Cc1cc(-c2ncnc3[nH]c4cc(N5CCN(C6CN(C7CN(c8ccc(N9CCC(=O)NC9=O)cc8)C7)C6)CC5)ccc4c23)ccc1[C@@H](C)NC(=O)c1nc(C2(C)CC2)no1 | 0.395

I: Cc1cc(-c2ncnc3[nH]c4cc(N5CCC6(CC5)CCN(C5CC(c7ccc(C8CCC(=O)NC8=O)cc7)C5)C6)ccc4c23)ccc1[C@@H](C)NC(=O)c1nc(C(C)(C)C)no1 (stereo in doubt)
II: COc1cc2c(cc1N1CCN(CC3CCN(c4ccc(N5CCC(=O)NC5=O)cc4)CC3)CC1)[nH]c1ncnc(-c3cc(C)c([C@@H](C)NC(=O)c4nc(C5(C)CC5)no4)cc3F)c12
III: Cc1cc(-c2ncnc3[nH]c4cc(N5CCN(CCc6ccc(C7CCC(=O)NC7=O)c(C)n6)CC5)ccc4c23)ccc1[C@@H](C)NC(=O)c1nc(C(C)(C)C)no1 (some centres unmarked)
IV: COc1cc2c(cc1N1CCN(Cc3ccc(SC4CCC(=O)NC4=O)cc3)CC1)[nH]c1ncnc(-c3ccc([C@@H](C)NC(=O)c4nc(C5(C)CC5)no4)c(C)c3)c12 (some centres unmarked)
Order by DC50, ascending. In plain terms: list the labels in the order you were asked to.
III, I, II, IV
(III: 0.347 nM, I: 1.52 nM, II: 2.51 nM, IV: 8.48 nM)

A: Cc1cc(-c2ncnc3[nH]c4cc(N5CCC6(CC5)CCN([C@H]5C[C@@H](c7ccc([C@@H]8CCC(=O)NC8=O)cc7)C5)CC6)ccc4c23)ccc1[C@@H](C)NC(=O)c1nc(C(C)(C)C)no1
B: Cc1cc(-c2ncnc3[nH]c4cc(N5CCN(CC6CN(c7ccc(N8CCC(=O)NC8=O)cc7)C6)CC5)ccc4c23)ccc1[C@@H](C)NC(=O)c1nc(C2(C)CC2)no1
C: Cc1cc(-c2ncnc3[nH]c4cc(N5CCN(C6CC(c7ccc([C@@H]8CCC(=O)NC8=O)cc7)C6)CC5)ccc4c23)ccc1[C@@H](C)NC(=O)c1nc(C2(C)CC2)no1 (some centres unmarked) [Example 67]
D: Cc1cc(-c2ncnc3[nH]c4cc(N5CCC6(CC5)CCN([C@H]5C[C@H](c7ccc(N[C@@H]8CCC(=O)NC8=O)cc7)C5)CC6)ccc4c23)ccc1[C@@H](C)NC(=O)c1nc(C(C)(C)C)no1
Order by DC50, ascending. In plain terms: list the labels in the order you were asked to.
B, C, A, D

1: COc1cc2c(cc1N1CCN(Cc3ccc4c(c3)C(C)(C)C(=O)N4C3CCC(=O)NC3=O)CC1)[nH]c1ncnc(-c3cc(C)c([C@@H](C)NC(=O)c4nc(C(C)(C)C)no4)cc3F)c12 (some centres unmarked)
2: Cc1cc(-c2ncnc3[nH]c4cc(C5CCN(CC6CCN(c7ccc(N8CCC(=O)NC8=O)cc7)CC6)CC5)ncc4c23)ccc1[C@@H](C)NC(=O)c1nc(C(C)(C)C)no1
3: Cc1c([C@@H](C)NC(=O)c2nc(C3(C)CC3)no2)ccc(-c2ncnc3[nH]c4cc(N5CCN(C6CC(c7ccc([C@H]8CCC(=O)NC8=O)cc7)C6)CC5)ccc4c23)c1F (some centres unmarked)
Order by DC50, ascending. In plain terms: list the labels in the order you were asked to.
2, 1, 3
(2: 1.29 nM, 1: 2.42 nM, 3: 4.1 nM)

----------
- TARGET ENTITY: BTK (Homo sapiens)
- Construct: High control=Cell group with added DMSO and without compound, indicating microplate readings without BTK degradation; endogenous in cells; host or cells: TMD-8
- MEASUREMENT NOTES: BTK degradation in TMD-8 cells (HTRF assay)
- Type: cell-based
- CONDITION INFO: 6 h treatment, IC50 (DC50) of BTK degradation
READOUT NAME: DC50 (nM)

Some solved cases for reference:
Cc1cc(-c2ncnc3[nH]c4cc(N5CCN([C@H]6C[C@H](c7ccc(N[C@H]8CCC(=O)NC8=O)cc7)C6)CC5)ccc4c23)ccc1[C@@H](C)NC(=O)c1nc(C2(C)CC2)no1 [Example 119] | 2.51
Cc1cc(-c2ncnc3[nH]c4cc(N5CCN(CC6CCN(c7ccc(N8CCC(=O)NC8=O)cc7)CC6)CC5)ccc4c23)c(F)cc1[C@@H](C)NC(=O)c1nc(C2(C)CC2)no1 [Example 89] | 0.55
Cc1cc(-c2ncnc3[nH]c4cc(N5CCN(CC6CCN(c7ccc(N8CCC(=O)NC8=O)cc7)CC6)CC5)ccc4c23)ccc1[C@@H](C)NC(=O)c1nc(C2(C)CC2)no1 [Example 35] | 0.15

1: COc1cc2c(cc1N1CCN(C3CCN(c4cccc(C5CCC(=O)NC5=O)c4)C3)CC1)[nH]c1ncnc(-c3ccc([C@@H](C)NC(=O)c4noc(C(C)(C)C)n4)c(C)c3F)c12 (stereo partly shown) [Example 61]
2: Cc1cc(-c2ncnc3[nH]c4cc(N5CCN(CC6CCN(c7ccc(N8CCC(=O)NC8=O)c(C)c7)CC6)CC5)ccc4c23)ccc1[C@@H](C)NC(=O)c1noc(C(C)(C)C)n1 [Example 22]
3: Cc1cc(-c2ncnc3[nH]c4cc([C@H]5CCN(CC6CCN(c7ccc(N8CCC(=O)NC8=O)cc7)CC6)C5)ccc4c23)ccc1[C@@H](C)NC(=O)c1nc(C(C)(C)C)no1 [Example 14]
4: COc1cc2c(cc1N1CCN([C@H]3C[C@@H](c4ccc(O[C@H]5CCC(=O)NC5=O)cc4)C3)CC1)[nH]c1ncnc(-c3ccc([C@@H](C)NC(=O)c4nc(C(C)(C)C)no4)c(C)c3)c12 [Example 128]
// ranking: key=DC50, reverse=True In plain terms: list the labels in the order you were asked to.
1, 4, 3, 2
(1: 5.52 nM, 4: 2.12 nM, 3: 0.495 nM, 2: 0.211 nM)

----------
Entries and their measured IC50 follow.
- System: HEK-293 cells
- MEASUREMENT NOTES: HEK-293 cytotoxicity detection (CellTiter-Glo)
- Type: cell-based
- CONDITION INFO: HEK-293 cells, 72 h incubation, CellTiter-Glo luminescence, IC50 of cell proliferation inhibition; read-out: HEK293
State the answer as a number, implicitly in nM.

Cc1cc(-c2ncnc3[nH]c4cc(N5CCC6(CC5)CCN(C5CC(c7ccc(N[C@H]8CCC(=O)NC8=O)cc7)C5)CC6)ccc4c23)ccc1[C@@H](C)NC(=O)c1nc(C(C)(C)C)no1 (some centres unmarked) [Example 108] | 949
Cc1cc(-c2ncnc3[nH]c4cc(N5CCC6(CC5)CCN(C5CC(c7ccc(N[C@@H]8CCC(=O)NC8=O)cc7)C5)CC6)ccc4c23)ccc1[C@@H](C)NC(=O)c1nc(C(C)(C)C)no1 (some centres unmarked) [Example 107] | 1030

Please find the next compound below.
GET /value?item= COc1cc2c(cc1N1CCN(C3CC(c4ccc(N[C@H]5CCC(=O)NC5=O)cc4)C3)CC1)[nH]c1ncnc(-c3cc(C)c([C@@H](C)NC(=O)c4nc(C5(C)CC5)no4)cc3F)c12 (some centres unmarked) [Example 94] &field=IC50 returns 420
